System: Serratia marcescens
Assay: In vitro antibacterial activity against Serratia marcescens strain 20019
Format: functional
reported.endpoint: MIC

>>> measurement("COC(=O)/C=C1\\SC2C(NC(=O)C(N)c3ccccc3)C(=O)N2C(C(=O)O)=C1C.O=C(O)C(F)(F)F (centres undefined)")
"> 125 µg/mL"
>>> measurement("CC(=O)OCC1=C(C(=O)O)N2C(=O)[C@@H](NC(=O)Cc3cccs3)[C@H]2SC1")
"> 125 µg/mL"
>>> measurement("COC(=O)/C=C1/SC2C(NC(=O)Cc3cccs3)C(=O)N2C(C(=O)O)=C1C (centres undefined)")
"4 µg/mL"
>>> measurement("CO/N=C(/C(=O)NC1C(=O)N2C(C(=O)O)=C(C)/C(=C/C(=O)OC)SC12)c1ccco1 (centres undefined)")
"> 125 µg/mL"
